# Tested on: RAW-Dual
# Test Details: NF-kB SEAP reporter activity, fold change vs agonist alone; cytotoxicity flag (confluency mask): not cytotoxic; higher = enhanced NF-kB activity
# Run Parameters: agonist: Pam2CSK4 (TLR2/6) 0.1 ug/mL
Over roughly 2,900 compounds, “NF-kB SEAP reporter activity, fold change vs agonist alone” has its median near 0.99; the highest 2% begin near 2.6. The list comes from a sample in which the highest values are over-represented; it also holds close analogues and randomly drawn compounds.
Categorized via NF-kB SEAP reporter activity: lower range: < 0.9; middle range: ≥ 0.9 and < 1; upper range: ≥ 1

* CN(C)C(=O)CCSC(SCCC(=O)O)c1cccc(C=Cc2ccc3ccc(Cl)cc3n2)c1 (configuration not stated) (library stock concentration (final ~1000-fold dilution): 10 mM) | middle range
* CCCCCCOC(=O)c1cc(=O)c(O)c2c(O)c(O)c(OC)cc2c1 (library stock concentration (final ~1000-fold dilution): 1 mM) | lower range
* CCCCOc1cc(C(=O)NCCN(CC)CC)c2ccccc2n1.Cl (library stock concentration (final ~1000-fold dilution): 10 mM) | lower range
* Cl.O=S(=O)(c1cccc2c(I)cccc12)N1CCCNCC1 (library stock concentration (final ~1000-fold dilution): 10 mM) | lower range
* COc1ccc(-n2c(SCCCN3C(=O)c4cccc5cccc(c45)C3=O)nnc2-c2ccncc2)cc1 (library stock concentration (final ~1000-fold dilution): 10 mM) | upper range
* OCC1OC(c2ccc(Cl)c(Cc3ccc(OC4CCOC4)cc3)c2)C(O)C(O)C1O (configuration not stated) (library stock concentration (final ~1000-fold dilution): 10 mM) | middle range
* CC(=O)N1CCC(Nc2cc(C(=O)NCC(O)CN3CCc4ccccc4C3)ncn2)CC1 (configuration not stated) (library stock concentration (final ~1000-fold dilution): 10 mM) | upper range
* O=C(O)CN1C(=O)c2cccc3cccc(c23)C1=O (library stock concentration (final ~1000-fold dilution): 10 mM) | upper range
* Cc1cn(C2CC(O)C(CO)O2)c(=O)[nH]c1=O (configuration not stated) (library stock concentration (final ~1000-fold dilution): 10 mM) | upper range
* Cc1nnc(C(C)C)n1C1CC2CCC(C1)N2CCC(NC(=O)C1CCC(F)(F)CC1)c1ccccc1 (configuration not stated) (library stock concentration (final ~1000-fold dilution): 10 mM) | upper range
* Cl.O=C1CN2Cc3c(ccc(Cl)c3Cl)NC2=N1 (library stock concentration (final ~1000-fold dilution): 10 mM) | lower range
